# ASSAY_REMARKS: AUC (0 to infinity) in BALB/c mouse at 10 mg/kg, po measured after 24 hrs by LC/MS/MS analysis
# Type: ADME, organism-based
# Design: dose 10 mg/kg, route oral, time infinity
# RUN_PARAMETERS: in vivo
PARAMETER_MEASURED: AUC(0-inf) (ng·h/mL)
Output spec: scalar in ng·h/mL, unitless text.

Can you look up the measured AUC(0-inf) of Nc1nnc(N2CCC(N3CCOC[C@@H]3Cc3ccc(Cl)cc3)CC2)[nH]1 for me?
11100

* * *

# ASSAY_REMARKS: Clearance in BALB/c mouse at 3 mg/kg, iv administered as single bolus dose measured after 24 hrs by LC/MS/MS analysis
# Type: ADME, organism-based
# RUN_PARAMETERS: in vivo
PARAMETER_MEASURED: clearance (mL/min/kg)
Output spec: scalar in mL/min/kg, unitless text.

Can you look up the measured clearance of Nc1nnc(N2CCC(N3CCOC[C@@H]3Cc3ccc(Cl)cc3)CC2)[nH]1 for me?
10.5

* * *

# ASSAY_REMARKS: AUC (0 to infinity) in Sprague-Dawley rat at 10 mg/kg, po measured upto 12 hrs by LC/MS/MS analysis
# Assay type: ADME, organism-based
# Set-up: dose 10 mg/kg, route oral, time infinity
# RUN_PARAMETERS: in vivo
PARAMETER_MEASURED: AUC(0-inf) (µg·h/mL)
Output spec: scalar in µg·h/mL, unitless text.

Can you look up the measured AUC(0-inf) of Nc1nnc(N2CCC(N3CCOC[C@@H]3Cc3ccc(Cl)cc3)CC2)[nH]1 for me?
8.01

* * *

# ASSAY_REMARKS: Half-life in Sprague-Dawley rat at 3 mg/kg, iv administered as single bolus dose measured after 5 to 12 hrs by LC/MS/MS analysis
# Format: ADME, organism-based
# RUN_PARAMETERS: in vivo
PARAMETER_MEASURED: half-life
Returns: string containing the numeric result and its unit.

Can you look up the measured half-life of Nc1nnc(N2CCC(N3CCOC[C@@H]3Cc3ccc(Cl)cc3)CC2)[nH]1 for me?
477 min

* * *

Listed below: IC50 values for each entry.
# STUDY_SYSTEM: Voltage-gated inwardly rectifying potassium channel KCNH2 (Homo sapiens)
# Sequence (Q12809 whole entry): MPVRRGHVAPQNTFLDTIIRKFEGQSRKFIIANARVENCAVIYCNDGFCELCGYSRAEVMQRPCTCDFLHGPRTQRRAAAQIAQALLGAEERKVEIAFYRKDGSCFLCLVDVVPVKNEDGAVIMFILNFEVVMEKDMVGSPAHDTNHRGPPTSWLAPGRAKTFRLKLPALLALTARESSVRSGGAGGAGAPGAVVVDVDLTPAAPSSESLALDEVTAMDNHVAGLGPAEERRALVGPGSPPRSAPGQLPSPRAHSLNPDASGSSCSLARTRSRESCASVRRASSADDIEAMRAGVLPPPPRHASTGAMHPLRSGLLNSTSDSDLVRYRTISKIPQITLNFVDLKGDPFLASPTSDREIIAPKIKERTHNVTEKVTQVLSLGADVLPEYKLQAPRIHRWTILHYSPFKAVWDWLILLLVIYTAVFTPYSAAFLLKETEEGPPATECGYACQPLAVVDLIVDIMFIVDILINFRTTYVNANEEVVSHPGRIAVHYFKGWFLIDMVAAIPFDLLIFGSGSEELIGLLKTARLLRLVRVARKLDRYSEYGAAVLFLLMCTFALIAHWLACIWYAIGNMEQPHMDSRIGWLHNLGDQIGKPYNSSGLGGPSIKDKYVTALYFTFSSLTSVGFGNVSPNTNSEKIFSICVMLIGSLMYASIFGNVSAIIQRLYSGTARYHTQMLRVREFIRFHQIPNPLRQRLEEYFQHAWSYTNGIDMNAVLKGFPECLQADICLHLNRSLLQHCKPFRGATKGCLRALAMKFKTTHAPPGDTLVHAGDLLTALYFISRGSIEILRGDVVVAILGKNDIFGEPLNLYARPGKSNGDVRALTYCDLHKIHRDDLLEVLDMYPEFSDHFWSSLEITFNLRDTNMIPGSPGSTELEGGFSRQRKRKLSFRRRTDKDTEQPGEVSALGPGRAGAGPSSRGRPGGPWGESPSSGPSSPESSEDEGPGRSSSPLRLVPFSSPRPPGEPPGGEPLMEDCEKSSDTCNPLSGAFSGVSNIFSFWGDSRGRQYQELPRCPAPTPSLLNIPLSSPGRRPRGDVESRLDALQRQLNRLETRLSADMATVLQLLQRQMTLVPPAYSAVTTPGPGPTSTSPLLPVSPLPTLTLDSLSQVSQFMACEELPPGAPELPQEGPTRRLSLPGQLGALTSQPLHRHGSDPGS
# ASSAY_REMARKS: Displacement of Tracer Red from human ERG by fluorescence polarization assay
Output spec: scalar in µM, unitless text.

CNC(=O)NCCN(CCc1ccc(Cl)cc1)C1CCN(c2nc(N)n[nH]2)CC1	1.8
CO[C@H]1CN(C2CCN(c3nnc(N)[nH]3)CC2)[C@H]1Cc1ccc(Cl)cc1	0.34

Can you look up the measured IC50 of COCCN(CCc1ccc(Cl)cc1)C1CCN(c2nc(N)n[nH]2)CC1 for me?
2.8

Can you look up the measured IC50 of Nc1n[nH]c(N2CCC(N(CCc3ccc(Cl)cc3)CC3CCCCO3)CC2)n1 (stereo not given) for me?
11

Can you look up the measured IC50 of Nc1nc(N2CCC(N3C[C@H](O)C[C@@H]3Cc3ccc(Cl)cc3)CC2)n[nH]1 for me?
55

Can you look up the measured IC50 of CS(=O)(=O)NCCN(CCc1ccc(Cl)cc1)C1CCN(c2nc(N)n[nH]2)CC1 for me?
7.2

Can you look up the measured IC50 of CO[C@H](C)CN(CCc1ccc(Cl)cc1)C1CCN(c2nc(N)n[nH]2)CC1 for me?
6.4

Can you look up the measured IC50 of CC(=O)NCCN(CCc1ccc(Cl)cc1)C1CCN(c2nc(N)n[nH]2)CC1 for me?
3.3

Can you look up the measured IC50 of C[C@@H](O)CN(CCc1ccc(Cl)cc1)C1CCN(c2nc(N)n[nH]2)CC1 for me?
6.1

Can you look up the measured IC50 of C[C@H](O)CN(CCc1ccc(Cl)cc1)C1CCN(c2nc(N)n[nH]2)CC1 for me?
14
